Listing of entries alongside the reported pIC50.
# measurement.target: Lipoxygenase (Rattus norvegicus, UniProt P12527)
# Construct: suspensions of polymorphonuclear peritonea of rates stimulated by means of the Ionophore A 23 187; endogenous in cells
# Sequence (P12527 whole entry): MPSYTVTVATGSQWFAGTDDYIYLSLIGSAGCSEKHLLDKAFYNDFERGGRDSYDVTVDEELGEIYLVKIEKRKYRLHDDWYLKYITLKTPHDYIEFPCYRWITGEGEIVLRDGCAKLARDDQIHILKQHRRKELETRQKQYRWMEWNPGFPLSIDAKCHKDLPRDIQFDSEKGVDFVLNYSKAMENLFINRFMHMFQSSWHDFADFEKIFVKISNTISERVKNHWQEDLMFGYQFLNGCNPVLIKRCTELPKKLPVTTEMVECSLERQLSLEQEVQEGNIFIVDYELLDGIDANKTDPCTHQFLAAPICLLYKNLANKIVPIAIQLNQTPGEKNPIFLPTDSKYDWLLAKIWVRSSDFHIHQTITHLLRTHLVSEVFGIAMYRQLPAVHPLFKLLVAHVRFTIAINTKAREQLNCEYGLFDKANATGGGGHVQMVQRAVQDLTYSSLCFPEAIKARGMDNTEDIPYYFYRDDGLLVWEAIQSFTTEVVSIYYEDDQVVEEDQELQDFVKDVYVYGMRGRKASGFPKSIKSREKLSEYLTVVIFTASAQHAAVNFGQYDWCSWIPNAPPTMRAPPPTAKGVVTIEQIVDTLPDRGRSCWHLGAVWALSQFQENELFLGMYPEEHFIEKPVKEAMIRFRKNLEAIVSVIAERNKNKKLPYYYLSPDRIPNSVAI
# method: Inhibition of Lipoxygenase: inhibition of leukotriene B4 production by polymorphonuclear cells stimulated by Ionophore A 23 187
# assay.conditions: polymorphonuclear peritoneal cell suspensions
pIC50 (log units): -log10 of the concentration in mol/L.

Here's what some known entries look like.
{"columns": ["smiles.data", "measurement.target", "pIC50"],
 "data": [
  ["O=c1ccn(-c2cccc(C(F)(F)F)c2)nc1OCc1ccccc1", "Lipoxygenase (Rattus norvegicus, UniProt P12527)", 4.60],
  ["Cc1cc(=O)c(OCc2ccc3ccccc3n2)nn1-c1cccc(C(F)(F)F)c1", "Lipoxygenase (Rattus norvegicus, UniProt P12527)", 5.96]
]}

Now examine the next entry.
Request: What does the data say about its pIC50? Entry: Cc1cc(=O)c(OCc2ccccc2)nn1-c1cccc(C(F)(F)F)c1
Response: 5.90

* * *

Listing of entries alongside the reported Vogel test: percentage of increase by reference to an untreated control.
# method: Anxiolytic activity, Vogel test
# Assay type: in vivo
# assay.conditions: 30 mg/kg per os
The reply should contain only the number, in %.

Request: What does the data say about its Vogel test: percentage of increase by reference to an untreated control? Entry: C=CCOc1nn(-c2cccc(C(F)(F)F)c2)c(C)cc1=O
Response: 48

Request: What does the data say about its Vogel test: percentage of increase by reference to an untreated control? Entry: COc1nn(-c2cccc(C(F)(F)F)c2)ccc1=O
Response: 52

Request: What does the data say about its Vogel test: percentage of increase by reference to an untreated control? Entry: COc1nn(-c2cccc(C(F)(F)F)c2)c(C)cc1=O
Response: 95

Request: What does the data say about its Vogel test: percentage of increase by reference to an untreated control? Entry: Cc1cc(=O)c(OCc2ccccc2)nn1-c1cccc(C(F)(F)F)c1
Response: 98

Request: What does the data say about its Vogel test: percentage of increase by reference to an untreated control? Entry: O=c1ccn(-c2cccc(C(F)(F)F)c2)nc1OCc1ccccc1
Response: 38
